system: test plant species; assay: Post-emergent herbicidal activity test (greenhouse, foliar spray, visual growth reduction); assay type: in vivo; conditions: post-emergence, 336 h, AVEFA: wild oat (Avena fatua), 140 g ai/ha, 14 days after application, read-out: Visual Growth Reduction (%) 14 Days After Application, AVEFA
Listed here: items and their measured pest or weed control at 140 g/ha.

Requested field: pest or weed control at 140 g/ha. Item: CCOC(=O)c1nc(-c2ccc(Cl)c(OC)c2F)cc(OCC)c1N
0 to 29%

Could you do the same for COC(=O)c1nc(-c2ccc(SC(F)(F)F)cc2)c(Cl)cc1Cl , please?
0 to 29%

Could you do the same for COC(=O)c1nc(-c2ccc(F)cc2Cl)ccc1Cl , please?
0 to 29%

Next:
Requested field: pest or weed control at 140 g/ha. Item: CO/N=C/c1ccc(-c2ccc(Cl)c(C(=O)OC)n2)c(Cl)c1
0 to 29%

Could you do the same for COC(=O)c1nc(-c2ccc(C(F)(F)F)cc2Cl)cc(C#N)c1Cl , please?
0 to 29%

Could you do the same for COC(=O)c1nc(-c2ccc(C(F)(F)F)cc2Cl)ncc1OC , please?
0 to 29%

Could you do the same for O=C(O)c1nc(-c2ccc(C(F)(F)F)nc2)ccc1Cl , please?
0 to 29%

Could you do the same for COC(=O)c1nc(-c2ccc(Br)cc2Cl)ccc1Cl , please?
0 to 29%

Could you do the same for COC(=O)c1nc(-c2ccc(OC)cc2Cl)ccc1Cl , please?
0 to 29%

Could you do the same for COC(=O)c1nc(-c2ccc(C(F)(F)F)cc2C(F)(F)F)ccc1Cl , please?
0 to 29%

Could you do the same for O=C(O)c1nc(-c2cc3c(cc2Cl)OC(F)(F)O3)ccc1Cl , please?
0 to 29%

Could you do the same for COC(=O)c1nc(-c2ccc(C(F)(F)C(N)=O)cc2Cl)ccc1Cl , please?
0 to 29%

Could you do the same for COC(=O)c1nc(-c2ccc3[nH]ccc3c2)c(F)cc1Cl , please?
0 to 29%

Could you do the same for COC(=O)c1nc(-c2ccc(OS(C)(=O)=O)cc2)c(F)cc1Cl , please?
0 to 29%

----------
tested on: test plant species; test: Post-emergent herbicidal activity test (greenhouse, foliar spray, visual growth reduction); assay type: in vivo; settings: post-emergence, 336 h, ECHCG: barnyardgrass (Echinochloa crus-galli), 140 g ai/ha, 14 days after application, read-out: Visual Growth Reduction (%) 14 Days After Application, ECHCG
parameterMeasured: pest or weed control at 140 g/ha

Record excerpt, results attached:
Requested field: pest or weed control at 140 g/ha. Item: COC(=O)c1nc(-c2ccc(C(F)(F)F)c(S(C)(=O)=O)c2Cl)ccc1Cl
0 to 29%

Could you do the same for COC(=O)c1nc(-c2ccc(C#N)cc2Cl)c(F)cc1Cl , please?
60 to 74%

Could you do the same for O=C(O)c1nc(-c2cc3c(cc2Cl)OCO3)ccc1Cl , please?
0 to 29%

Could you do the same for COC(=O)c1nc(-c2cc(F)c(C(F)(F)F)cc2Cl)c(F)cc1Cl , please?
60 to 74%

Could you do the same for COC(=O)c1nc(-c2cc([N+](=O)[O-])c(C(F)(F)F)cc2Cl)c(F)cc1Cl , please?
0 to 29%

Next:
Requested field: pest or weed control at 140 g/ha. Item: COC(=O)c1nc(-c2ccc(C(F)F)cc2OC)c(F)cc1Cl
0 to 29%

----------
test system: test plant species; assay: Post-emergent herbicidal activity test (greenhouse, foliar spray, visual growth reduction); type: in vivo; conditions: post-emergence, 336 h, crabgrass (Digitaria sanguinalis), 14 Days After Application, 140 g ai/ha, read-out: Visual Growth Reduction (%) DIGSA
parameterMeasured: pest or weed control at 140 g/ha

Record excerpt, results attached:
Requested field: pest or weed control at 140 g/ha. Item: COC(=O)c1nc(-c2cccc(Cl)c2F)ccc1Cl [F277]
0 to 29%

Could you do the same for COC(=O)c1cc2c(c(-c3nc(C(=O)OC)c(Cl)cc3F)c1)OC(F)(F)O2 [F244] , please?
0 to 29%

Could you do the same for COC(=O)c1nc(-c2cccc3c2OC(F)(F)O3)ccc1Cl [F242] , please?
0 to 29%

Next:
Requested field: pest or weed control at 140 g/ha. Item: COC(=O)c1nc(-c2ccc(N)cc2Cl)c(F)cc1Cl [F358]
0 to 29%

Could you do the same for COC(=O)c1nc(-c2c(Cl)cc(C(F)(F)F)cc2I)ccc1Cl [F214] , please?
95 to 100%

Could you do the same for COC(=O)c1nc(-c2ccc(C(F)(F)F)c(F)c2)ccc1Cl [F306] , please?
75 to 84%

Could you do the same for COC(=O)c1nc(-c2ccc(C3(C#N)CC3)cc2Cl)ccc1Cl [F236] , please?
75 to 84%

Could you do the same for COC(=O)c1nc(-c2cc3nonc3cc2Cl)ccc1Cl [F261] , please?
60 to 74%

Could you do the same for O=C(O)c1nc(-c2cnc(C(F)(F)F)cc2Cl)ccc1Cl [F205] , please?
45 to 59%

Could you do the same for COC(=O)c1nc(-c2ccc3ncoc3c2)ccc1Cl [F262] , please?
0 to 29%

----------
tested on: test plant species; experiment: Post-emergent herbicidal activity test (greenhouse, foliar spray, visual growth reduction); assay type: in vivo; details: post-emergence, 336 h, SORVU: grain sorghum (Sorghum vulgare), 140 g ai/ha, 14 days after application, read-out: Visual Growth Reduction (%) 14 Days After Application, SORVU
Listed here: items and their measured pest or weed control at 140 g/ha.

Requested field: pest or weed control at 140 g/ha. Item: COC(=O)c1nc(-c2ccc([S+](C)[O-])cc2)c(F)cc1Cl (stereo not shown)
0 to 29%

Could you do the same for COC(=O)c1nc(-c2cc(Cl)c(C)cc2F)ccc1Cl , please?
0 to 29%

Could you do the same for COC(=O)c1nc(-c2ccc(C(F)(F)F)c(F)c2F)ccc1Cl , please?
60 to 74%

Could you do the same for COC(=O)c1nc(-c2ccc(Cl)c(N(C)C)c2)ccc1Cl , please?
0 to 29%

Could you do the same for COC(=O)c1nc(-c2ccc(SC(F)(F)F)cc2)c(Cl)cc1Cl , please?
0 to 29%

Could you do the same for COC(=O)c1cc2c(c(-c3nc(C(=O)OC)c(Cl)cc3F)c1)OC(F)(F)O2 , please?
0 to 29%

Could you do the same for N#Cc1cc(-c2nc(C(=O)O)c(Cl)cc2F)c(Cl)cc1C(F)(F)F , please?
75 to 84%

Could you do the same for COC(=O)c1nc(-c2ccc(C(F)(F)F)cc2Cl)ccc1Br , please?
85 to 94%

Consider the additional compound presented here.
Requested field: pest or weed control at 140 g/ha. Item: CCCOC(=O)c1nc(-c2ccc(Cl)c(OC)c2F)ccc1Cl
0 to 29%

----------
Listed here: items and their measured pest or weed control at 140 g/ha.
system: test plant species; test: Post-emergent herbicidal activity test (greenhouse, foliar spray, visual growth reduction); format: in vivo; settings: post-emergence, 336 h, CIRAR: canada thistle (Cirsium arvense), 140 g ai/ha, 14 days after application, read-out: Visual Growth Reduction (%) 14 Days After Application, CIRAR

Record excerpt, results attached:
Requested field: pest or weed control at 140 g/ha. Item: COC(=O)c1nc(-c2ncc(C(F)(F)F)cc2Cl)ccc1Cl [F101]
85 to 94%

Could you do the same for COC(=O)c1nc(-c2ccc(Cl)c(F)c2Cl)ccc1Cl [F63] , please?
85 to 94%

Could you do the same for COC(=O)c1nc(-c2ccc3cc[nH]c3c2F)ccc1Cl [F69] , please?
0 to 29%

Next:
Requested field: pest or weed control at 140 g/ha. Item: COC(=O)c1nc(-c2ccc(C(F)(F)F)cc2C)ccc1Cl [F29]
0 to 29%

Could you do the same for O=C(OCc1ccc(Cl)cc1Cl)c1nc(-c2ccc(C(F)(F)F)cc2Cl)ccc1Cl [F116] , please?
85 to 94%

Could you do the same for COC(=O)c1nc(-c2cc3c(cc2Cl)OC(F)(F)O3)c(Cl)cc1Cl [F154] , please?
0 to 29%

Could you do the same for O=C(O)c1nc(-c2ccnc(Cl)c2Cl)ccc1Cl [F133] , please?
0 to 29%

Could you do the same for COC(=O)c1nc(-c2cc3c(cc2Cl)OC(F)(F)O3)ccc1Cl [F124] , please?
75 to 84%

Could you do the same for COC(=O)c1nc(-c2ccc(C(C)=O)cc2Cl)ccc1Cl [F26] , please?
0 to 29%

Could you do the same for COC(=O)c1nc(-c2ccc(C(F)(F)F)cc2C(F)(F)F)ccc1Cl [F17] , please?
0 to 29%
